settings: powder 10 mg, desiccator (relative humidity: 10%), ambient temperature (23±2° C.), seven days
Where a name gives a salt, the structure may show the parent alone.
Kindly supply the reported Undecomposed PAPS (%) values for the records listed here.
Include the unit after the number when you answer.

Below, 4 molecules whose answers are already recorded.
molecule="Nc1ncnc2c1ncn2[C@@H]1O[C@H](COP(=O)(O)OS(=O)(=O)O)[C@@H](OP(=O)(O)O)[C@H]1O [Imidazole salt, 3′-phosphoadenosine 5′-phosphosulfate]" experimental_readout="Undecomposed PAPS (%)" endpoint_result=2.9%
molecule="Nc1ncnc2c1ncn2[C@@H]1O[C@H](COP(=O)(O)OS(=O)(=O)O)[C@@H](OP(=O)(O)O)[C@H]1O [Potassium salt, 3′-phosphoadenosine 5′-phosphosulfate]" experimental_readout="Undecomposed PAPS (%)" endpoint_result=22%
molecule="Nc1ncnc2c1ncn2[C@@H]1O[C@H](COP(=O)(O)OS(=O)(=O)O)[C@@H](OP(=O)(O)O)[C@H]1O [Ammonium salt, 3′-phosphoadenosine 5′-phosphosulfate]" experimental_readout="Undecomposed PAPS (%)" endpoint_result=4.1%
molecule="Nc1ncnc2c1ncn2[C@@H]1O[C@H](COP(=O)(O)OS(=O)(=O)O)[C@@H](OP(=O)(O)O)[C@H]1O [Lithium salt, 3′-phosphoadenosine 5′-phosphosulfate]" experimental_readout="Undecomposed PAPS (%)" endpoint_result=65%

// batch mode: one Undecomposed PAPS (%) value per listed entry
1. Nc1ncnc2c1ncn2[C@@H]1O[C@H](COP(=O)(O)OS(=O)(=O)O)[C@@H](OP(=O)(O)O)[C@H]1O [Polyethyleneimine salt, 3′-phosphoadenosine 5′-phosphosulfate]
2. Nc1ncnc2c1ncn2[C@@H]1O[C@H](COP(=O)(O)OS(=O)(=O)O)[C@@H](OP(=O)(O)O)[C@H]1O [L-Histidine salt, 3′-phosphoadenosine 5′-phosphosulfate]
3. Nc1ncnc2c1ncn2[C@@H]1O[C@H](COP(=O)(O)OS(=O)(=O)O)[C@@H](OP(=O)(O)O)[C@H]1O [Ethanolamine salt, 3′-phosphoadenosine 5′-phosphosulfate]

**A:**
["94%", "98%", "13%"]

// batch mode: one Undecomposed PAPS (%) value per listed entry
1. Nc1ncnc2c1ncn2[C@@H]1O[C@H](COP(=O)(O)OS(=O)(=O)O)[C@@H](OP(=O)(O)O)[C@H]1O [Diethylamine salt, 3′-phosphoadenosine 5′-phosphosulfate]
2. Nc1ncnc2c1ncn2[C@@H]1O[C@H](COP(=O)(O)OS(=O)(=O)O)[C@@H](OP(=O)(O)O)[C@H]1O [Triethylamine salt, 3′-phosphoadenosine 5′-phosphosulfate]

**A:**
1: 96%; 2: 100%

// batch mode: one Undecomposed PAPS (%) value per listed entry
1. Nc1ncnc2c1ncn2[C@@H]1O[C@H](COP(=O)(O)OS(=O)(=O)O)[C@@H](OP(=O)(O)O)[C@H]1O [Sodium salt, 3′-phosphoadenosine 5′-phosphosulfate]
2. Nc1ncnc2c1ncn2[C@@H]1O[C@H](COP(=O)(O)OS(=O)(=O)O)[C@@H](OP(=O)(O)O)[C@H]1O [Putrescine salt, 3′-phosphoadenosine 5′-phosphosulfate]

**A:**
1: 64%; 2: 80%
